# System: MDA-MB-436
# Assay Notes: normalised response (% of control), CellTiter-Glo; higher = more viable cells (100 = DMSO, 0 = benzethonium chloride kill control)
# Setup Conditions: incubation time: 72 h
normalised response values, listed per item
Reported Metric: normalised response (%)

> print(dat)
                                   compound  target.desc      reported.metric  scale.unit   val
1  CN(c1ccccc1CNc1nc(Nc2ccc3c(c2)CC(=O)N3)ncc1C(F)(F)F)S(C)(=O)=O (1 nM)   MDA-MB-436  normalised response           %   106
2  FC(F)c1nc2ccccc2n1-c1nc(N2CCOCC2)nc(N2CCOCC2)n1 [ZSTK474] (1000 nM)   MDA-MB-436  normalised response           %  56.8
3  COC1=CC(c2cc3ccccc3[nH]2)=N/C1=C\c1[nH]c(C)cc1C [Obatoclax] (1000 nM)   MDA-MB-436  normalised response           %  89.7
4  Cn1c(=O)c(F)c(Nc2ccc(I)cc2F)c2c(=O)n(C[C@@H](O)CO)cnc21 [TAK-733] (0.1 nM)   MDA-MB-436  normalised response           %  96.2
